Reported ELISA values (OD 450 nm) by item:
molecular target: T1, His-tagged cynomolgous macaque BCMA (Acro Biosystems, BCA-C52H7) (cynomolgus macaque, UniProt Q02223 1-54 (human entry)); test: ELISA, hybridoma supernatant, coated His-tagged antigen; further: test concentration or dose not given here
T1 construct: Bought protein; also called cyno BCMA; CyBCMA; not shown: His tag
Measure name: ELISA values (OD 450 nm)

Binder: 539-SP7-F4 (antibody produced by the hybridoma) (antibody, V domains shown, Mouse antibody from B cell hybridoma (culture supernatant or IgG purified from it)) VH: EVQLQQSGPELVKPGASMKISCKASGYSFTGYIMNWVKQSHGKNLEWIGLINPYNGDSIYNQKFKGKATLTVDKSSSTAYMELFSLTSEDSTVYYCAAGEEFAYWGQGTLVTVSA VL: DIQMTQTSSSLSASLGDRVTISCRASQDISIYLNWFQQKPDGTVKLLIYFTSRLHPGVPSRFSASGSGTDYSLTISHLEHEDIATYFCQQGNTLPRTFGGGTKVELK
Measure name: ELISA values (OD 450 nm)
Experimental result: 2.35 OD

Binder: 552-LN1-E9 (antibody produced by the hybridoma) (antibody, V domains shown, Mouse antibody from B cell hybridoma (culture supernatant or IgG purified from it)) VH: QIQLVQSGPELKKPGETVKISCKASGYTFTDYSIYWVKQAPGKGLKWMGWINTETGEPTYADDFKGRFAFSLETSASSAYLQINTLKNEDTATYFCSISYYYAMDYWGQGTSVTVSS VL: DIVLTQSPASLAVSLGQRATISCRASKSVSTSGYSFLHWYQQKPGQPPKLLIYFASNLESGVPARFSGSGSGTDFTLNIHPVEEEDAATYYCQHSRELPRTFGGGTKLEIK
Measure name: ELISA values (OD 450 nm)
Experimental result: 2.07 OD

Binder: 538-SP5-B10 (antibody produced by the hybridoma) (antibody, V domains shown, Mouse antibody from B cell hybridoma (culture supernatant or IgG purified from it)) VH: EVQLQQSGPELVKPGASVKMSCKASGYTFTSYVMHWVKQKPGRGLEWIAYILPFNDVTKYNEKFKGKATLTSDKSSNTAYMELSSLTSEDSAVYYCARWEWDDGYFDYWGQGTTLTVSS VL: DAVMTQTPLSLPVSLGDQASISCRSSQSLENSNGNTYLNWYLQKPGQSPQLLIYRVSNRFSGVLDRFSGSGSGTDFTLKISRVEAEDLGVYFCLQVSHVPFTFGAGTKLELK
Measure name: ELISA values (OD 450 nm)
Experimental result: 2.44 OD

Binder: 552-LN2-F8 (antibody produced by the hybridoma) (antibody, V domains shown, Mouse antibody from B cell hybridoma (culture supernatant or IgG purified from it)) VH: QIQLVQSGPELKKPGETVKISCKASGYTFTDYTMYWVKQAPGKGLKWMGWINTETGEPTYADDFKGRFVFSLETSANTAYLQINNLKNEDTATYFCAISYYYGMDYWGQGTSVTVTS VL: DIILTQSPASLAVSLGQRATITCRASKSVSTSGYNFVYWYQQKPGQPPKLLIYLASNLESGVPARFSGSGSGTDFTLNIHPVEEEDAATYYCQHSRELPRTFGGGTKLEIK
Measure name: ELISA values (OD 450 nm)
Experimental result: 1.83 OD

Binder: 539-SP1-C8 (antibody produced by the hybridoma) (antibody, V domains shown, Mouse antibody from B cell hybridoma (culture supernatant or IgG purified from it)) VH: EVQLQQSGPELVKPGSSVKMSCKASGYTFTNYVMHWVKQKPGQGLEWIGYILPYNDGTKYNEKFKGKATLTSDKSSSTAYMEFSVLTSEDSAVYYCARYDYEGSFDYWGQGTALTVSS VL: DIQMTQTTSSLSASLGDRVTISCRASQDISNYLNWYQQKPDGTVKLLMCYTSRLHSGVPSRFSGSGSGTDFSLTISNLEQEDIATYFCQQGNTFPPTFGGGTKLEIK
Measure name: ELISA values (OD 450 nm)
Experimental result: 2.04 OD
